- Species on record: Rattus norvegicus
- Protocol Text: Open TG-GATES - Regimen: Single
- Assay type: toxicity, organism-based, Sprague-Dawley
- Parameters: regimen Single, gender Male, age 6 weeks
- Test Context: in vivo, po, 0 mg/kg, 6 h, tissue Blood, route gavage, dose level Control
Attribute: APTT

Check out these entries, answers already filled in.
Per the records, this molecule ( NS(=O)(=O)c1cc(C(=O)O)c(NCc2ccco2)cc1Cl [FUROSEMIDE] ) has APTT equal to 16.5 s

Per the records, this molecule ( `CCO` ) has APTT equal to 18.8 s

Per the records, this molecule ( CN(CCOc1ccc(CC2SC(=O)NC2=O)cc1)c1ccccn1.O=C(O)/C=C\C(=O)O (stereo not given) [ROSIGLITAZONE MALEATE] ) has APTT equal to 15.9 s

Per the records, this molecule ( `CC(=O)[C@@]1(O)CC[C@H]2[C@@H]3C=C(Cl)C4=CC(=O)CC[C@]4(C)[C@H]3CC[C@@]21C` ) has APTT equal to 23.8 s

--- query ---
Per the records, this molecule ( `O=c1ccc2ccccc2o1` ) has APTT equal to 16.3 s
